Reference source for all entries: paper PMC7315563

Listed here are compounds together with their documented viability at 31.25 µg/mL.
test system: MDA-MB-231 human breast cancer cells; assay: cell viability assay (MTT); assay type: cell-based; conditions: 31.25 µg/mL, 24 h, read-out: Validity (%) for sample concentrations (µg/mL) 31.25
Entry rule: numbers only, all in %.

Consider the reported viability at 31.25 µg/mL for these compounds:
INSERT INTO assay_data (compound, test_target, result_value) VALUES
  ('O=C1CSC(c2ccnc3ccccc23)N1c1nc(-c2cc(Cl)cc3c2-c2ccc(Cl)cc2C3)cs1 (centres unmarked)', 'MDA-MB-231 human breast cancer cells', 92.8),
  ('O=C1CSC(C=Cc2ccccc2)N1c1nc(-c2cc(Cl)cc3c2-c2ccc(Cl)cc2C3)cs1 (centres unmarked)', 'MDA-MB-231 human breast cancer cells', 61),
  ('O=C1C(Cl)C(c2ccc[nH]2)N1c1nc(-c2cc(Cl)cc3c2-c2ccc(Cl)cc2C3)cs1 (centres unmarked)', 'MDA-MB-231 human breast cancer cells', 85.5),
  ('O=C1C(Cl)C(c2ccc(Cl)cc2)N1c1nc(-c2cc(Cl)cc3c2-c2ccc(Cl)cc2C3)cs1 (centres unmarked)', 'MDA-MB-231 human breast cancer cells', 63.1),
  ('COc1ccc(C2SCC(=O)N2c2nc(-c3cc(Cl)cc4c3-c3ccc(Cl)cc3C4)cs2)cc1 (centres unmarked)', 'MDA-MB-231 human breast cancer cells', 90.8),
  ('COc1ccc(C2C(Cl)C(=O)N2c2nc(-c3cc(Cl)cc4c3-c3ccc(Cl)cc3C4)cs2)cc1 (centres unmarked)', 'MDA-MB-231 human breast cancer cells', 89.7),
  ('CN(C)c1ccc(C2C(Cl)C(=O)N2c2nc(-c3cc(Cl)cc4c3-c3ccc(Cl)cc3C4)cs2)cc1 (centres unmarked)', 'MDA-MB-231 human breast cancer cells', 89.9);

Next compound, viability at 31.25 µg/mL to be filled in.
GET /value?item= O=C1CSC(c2ccc[nH]2)N1c1nc(-c2cc(Cl)cc3c2-c2ccc(Cl)cc2C3)cs1 (centres unmarked) &field=viability at 31.25 µg/mL returns 79.7
